# System: Staphylococcus
# Measurement notes: Antimicrobial activity against Staphylococcus albus NCIM 2178 at 1000 ug/disk after 24 hrs by disk diffusion method
# Type: functional
# Stated conditions: NCIM 2178, 24 h, read-out: DIZ
Measured metric: zone of inhibition at 1000 µg/disc (mm)
Entry rule: numbers only, all in mm.

Below are worked cases with known answers.
>  <Compound>
O=C1CCCC2=C1C(c1cccc([N+](=O)[O-])c1)c1ccc3ccccc3c1N2 (stereo unspecified)

>  <zone of inhibition at 1000 µg/disc / mm>
11

$$$$
>  <Compound>
CC1(C)CC(=O)C2=C(C1)Nc1c(ccc3ccccc13)C2c1ccc(O)cc1 (stereo unspecified)

>  <zone of inhibition at 1000 µg/disc / mm>
8

$$$$

Sure, the documented zone of inhibition at 1000 µg/disc for O=C1CCCC2=C1C(c1ccc(Cl)cc1)c1ccc3ccccc3c1N2 (stereo unspecified) is 10

Sure, the documented zone of inhibition at 1000 µg/disc for O=C1CCCC2=C1C(c1ccc(O)cc1)c1ccc3ccccc3c1N2 (stereo unspecified) is 10

Sure, the documented zone of inhibition at 1000 µg/disc for CC1(C)CC(=O)C2=C(C1)Nc1c(ccc3ccccc13)C2c1cccc([N+](=O)[O-])c1 (stereo unspecified) is 9

Sure, the documented zone of inhibition at 1000 µg/disc for CC1(C)CC(=O)C2=C(C1)Nc1c(ccc3ccccc13)C2c1ccc(Cl)cc1 (stereo unspecified) is 9

====

// zone of inhibition at 1000 µg/disc lookup, one value per entry
# Tested on: Aspergillus niger
# Measurement notes: Antimicrobial activity against Aspergillus niger NCIM 902 at 1000 ug/disk after 72 hrs by disk diffusion method
# Assay type: functional
# Stated conditions: NCIM 1196, 72 h, in the assay text read “NCIM 1196” for “NCIM 902”, read-out: DIZ
Entry rule: numbers only, all in mm.

Below are worked cases with known answers.
>  <Compound>
O=C1CCCC2=C1C(c1cccc([N+](=O)[O-])c1)c1ccc3ccccc3c1N2 (stereo not given)

>  <zone of inhibition at 1000 µg/disc / mm>
7

$$$$
>  <Compound>
O=C1CCCC2=C1C(c1ccc(O)cc1)c1ccc3ccccc3c1N2 (stereo not given)

>  <zone of inhibition at 1000 µg/disc / mm>
9

$$$$

Sure, the documented zone of inhibition at 1000 µg/disc for O=C1CCCC2=C1C(c1ccc(Cl)cc1)c1ccc3ccccc3c1N2 (stereo not given) is 8

Sure, the documented zone of inhibition at 1000 µg/disc for CC1(C)CC(=O)C2=C(C1)Nc1c(ccc3ccccc13)C2c1ccc(O)cc1 (stereo not given) is 10

Sure, the documented zone of inhibition at 1000 µg/disc for O=C1CCCC2=C1C(c1ccccc1O)c1ccc3ccccc3c1N2 (stereo not given) is 9

====

// MIC lookup, one value per entry
# Test system: Aspergillus fumigatus
# Measurement notes: Antimicrobial activity against Aspergillus fumigatus NCIM 902 after 72 hrs by serial dilution method
# Type: functional
# Stated conditions: NCIM 902, 72 h
Entry rule: numbers only, all in µg/mL.

Below are worked cases with known answers.
>  <Compound>
O=C1CCCC2=C1C(c1cccc(Cl)c1)c1ccc3ccccc3c1N2 (stereo unspecified)

>  <Assay system>
Aspergillus fumigatus

>  <MIC, µg/mL>
31.2

$$$$
>  <Compound>
O=C1CCCC2=C1C(c1ccc(Cl)cc1)c1ccc3ccccc3c1N2 (stereo unspecified)

>  <Assay system>
Aspergillus fumigatus

>  <MIC, µg/mL>
62.5

$$$$
>  <Compound>
CC1(C)CC(=O)C2=C(C1)Nc1c(ccc3ccccc13)C2c1cccc(Cl)c1 (stereo unspecified)

>  <Assay system>
Aspergillus fumigatus

>  <MIC, µg/mL>
62.5

$$$$
>  <Compound>
O=C1CCCC2=C1C(c1ccccc1)c1ccc3ccccc3c1N2 (stereo unspecified)

>  <Assay system>
Aspergillus fumigatus

>  <MIC, µg/mL>
62.5

$$$$

Sure, the documented MIC for O=C1CCCC2=C1C(c1ccccc1O)c1ccc3ccccc3c1N2 (stereo unspecified) is 62.5

Sure, the documented MIC for O=C1CCCC2=C1C(c1ccccc1Cl)c1ccc3ccccc3c1N2 (stereo unspecified) is 62.5

Sure, the documented MIC for CC1(C)CC(=O)C2=C(C1)Nc1c(ccc3ccccc13)C2c1ccc(Cl)cc1 (stereo unspecified) is 125

Sure, the documented MIC for O=C1CCCC2=C1C(c1cccc([N+](=O)[O-])c1)c1ccc3ccccc3c1N2 (stereo unspecified) is 125

Sure, the documented MIC for CC1(C)CC(=O)C2=C(C1)Nc1c(ccc3ccccc13)C2c1ccccc1Cl (stereo unspecified) is 125

Sure, the documented MIC for CC1(C)CC(=O)C2=C(C1)Nc1c(ccc3ccccc13)C2c1ccccc1 (stereo unspecified) is 62.5

Sure, the documented MIC for CC1(C)CC(=O)C2=C(C1)Nc1c(ccc3ccccc13)C2c1cccc([N+](=O)[O-])c1 (stereo unspecified) is 62.5

====

# Test system: Aspergillus parasiticus
# Measurement notes: Antimicrobial activity against Aspergillus parasiticus NCIM 904 after 72 hrs by serial dilution method
# Type: functional
# Stated conditions: NCIM 904, 72 h
Measured metric: MIC (µg/mL)
Entry rule: numbers only, all in µg/mL.

Below are worked cases with known answers.
>  <Molecule>
CC1(C)CC(=O)C2=C(C1)Nc1c(ccc3ccccc13)C2c1ccc(Cl)cc1 (stereo not given)

>  <MIC, µg/mL>
3.9

$$$$
>  <Molecule>
O=C1CCCC2=C1C(c1cccc(Cl)c1)c1ccc3ccccc3c1N2 (stereo not given)

>  <MIC, µg/mL>
15.6

$$$$
>  <Molecule>
O=C1CCCC2=C1C(c1cccc([N+](=O)[O-])c1)c1ccc3ccccc3c1N2 (stereo not given)

>  <MIC, µg/mL>
15.6

$$$$
>  <Molecule>
O=C1CCCC2=C1C(c1ccccc1)c1ccc3ccccc3c1N2 (stereo not given)

>  <MIC, µg/mL>
62.5

$$$$

Attention now shifts to the item below.
Test item CC1(C)CC(=O)C2=C(C1)Nc1c(ccc3ccccc13)C2c1ccccc1Cl (stereo not given) ; Aspergillus parasiticus; reported MIC was 62.5

====

// MIC lookup, one value per entry
# System: Aspergillus parasiticus
# Measurement notes: Antimicrobial activity against Aspergillus parasiticus NCIM 904 after 72 hrs by serial dilution method
# Format: functional
# Stated conditions: NCIM 904, 72 h
Entry rule: numbers only, all in µg/mL.

Below are worked cases with known answers.
>  <Compound>
CC1(C)CC(=O)C2=C(C1)Nc1c(ccc3ccccc13)C2c1cccc(Cl)c1 (centres undefined)

>  <Reading>
31.2

$$$$
>  <Compound>
O=C1CCCC2=C1C(c1ccccc1O)c1ccc3ccccc3c1N2 (centres undefined)

>  <Reading>
62.5

$$$$
>  <Compound>
CC1(C)CC(=O)C2=C(C1)Nc1c(ccc3ccccc13)C2c1ccc(O)cc1 (centres undefined)

>  <Reading>
7.8

$$$$

Attention now shifts to the item below.
Sure, the documented MIC for O=C1CCCC2=C1C(c1ccc(Cl)cc1)c1ccc3ccccc3c1N2 (centres undefined) is 31.2

====

// MIC lookup, one value per entry
# Tested on: Penicillium chrysogenum
# Measurement notes: Antimicrobial activity against Penicillium chrysogenum NCIM 707 after 72 hrs by serial dilution method
# Type: functional
# Stated conditions: NCIM 707, 72 h
Entry rule: numbers only, all in µg/mL.

Sure, the documented MIC for O=C1CCCC2=C1C(c1ccc(O)cc1)c1ccc3ccccc3c1N2 (stereo unspecified) is 125

Sure, the documented MIC for CC1(C)CC(=O)C2=C(C1)Nc1c(ccc3ccccc13)C2c1ccc(O)cc1 (stereo unspecified) is 125

Sure, the documented MIC for CC1(C)CC(=O)C2=C(C1)Nc1c(ccc3ccccc13)C2c1cccc([N+](=O)[O-])c1 (stereo unspecified) is 62.5

Sure, the documented MIC for CC1(C)CC(=O)C2=C(C1)Nc1c(ccc3ccccc13)C2c1cccc(Cl)c1 (stereo unspecified) is 62.5

Sure, the documented MIC for O=C1CCCC2=C1C(c1ccc(Cl)cc1)c1ccc3ccccc3c1N2 (stereo unspecified) is 125

Sure, the documented MIC for O=C1CCCC2=C1C(c1ccccc1O)c1ccc3ccccc3c1N2 (stereo unspecified) is 125

====

// zone of inhibition at 500 µg/disc lookup, one value per entry
# Test system: Lipomyces lipofer
# Measurement notes: Antimicrobial activity against Lipomyces lipofer NCIM 3252 at 500 ug/disk after 72 hrs by disk diffusion method
# Assay type: functional
# Stated conditions: NCIM 3252, 72 h, read-out: DIZ
Entry rule: numbers only, all in mm.

>  <Compound>
CC1(C)CC(=O)C2=C(C1)Nc1c(ccc3ccccc13)C2c1cccc([N+](=O)[O-])c1 (stereo not given)

>  <zone of inhibition at 500 µg/disc / mm>
8

$$$$
>  <Compound>
CC1(C)CC(=O)C2=C(C1)Nc1c(ccc3ccccc13)C2c1ccc(O)cc1 (stereo not given)

>  <zone of inhibition at 500 µg/disc / mm>
7

$$$$
>  <Compound>
O=C1CCCC2=C1C(c1ccc(O)cc1)c1ccc3ccccc3c1N2 (stereo not given)

>  <zone of inhibition at 500 µg/disc / mm>
10

$$$$
>  <Compound>
O=C1CCCC2=C1C(c1cccc([N+](=O)[O-])c1)c1ccc3ccccc3c1N2 (stereo not given)

>  <zone of inhibition at 500 µg/disc / mm>
8

$$$$

Attention now shifts to the item below.
Sure, the documented zone of inhibition at 500 µg/disc for CC1(C)CC(=O)C2=C(C1)Nc1c(ccc3ccccc13)C2c1ccccc1Cl (stereo not given) is 7
